# testProtocol: Rifampin (strong CYP3A inducer) DDI study, plasma pharmacokinetics
# Assay type: in vivo, human
# cond: both sexes, human, plasma, po, ripretinib 100 mg single oral dose + rifampin 600 mg QD, fasting, healthy participants (N = 21); read-out: t1/2, geometric mean (CV%) (converted)
recordedMetric: half-life (h)

>>> endpointvalue("CCn1c(=O)c(-c2cc(NC(=O)Nc3ccccc3)c(F)cc2Br)cc2cnc(NC)cc21")
7

* * *

# testProtocol: Itraconazole (strong CYP3A inhibitor) DDI study, plasma pharmacokinetics
# Type: in vivo, human
# cond: both sexes, human, plasma, po, ripretinib 50 mg single oral dose + itraconazole 200 mg QD, fasting, healthy participants (N = 20); read-out: t1/2, geometric mean (CV%) (converted)
# Experimental: All studies were phase 1, fixed‐sequence, open‐label studies in healthy volunteers. […] Ripretinib and its active metabolite DP‐5439 plasma concentrations were measured using a validated high‐performance liquid chromatography (HPLC) with tandem mass spectrometry (LC‐MS/MS) assay with a lower limit of quantification (LLOQ) of 2.00 ng/mL for both analytes. […] Quantification was obtained by using multiple reaction monitoring mode of the transitions of mass to charge ratio [m/z] […]
recordedMetric: half-life (h)

>>> endpointvalue("CCn1c(=O)c(-c2cc(NC(=O)Nc3ccccc3)c(F)cc2Br)cc2cnc(NC)cc21")
24

* * *

# testProtocol: Itraconazole (strong CYP3A inhibitor) DDI study, plasma pharmacokinetics
# Assay type: in vivo, human
# cond: both sexes, human, plasma, po, ripretinib 50 mg single oral dose + itraconazole 200 mg QD, fasting, healthy participants (N = 20); read-out: t1/2, arithmetic mean (SD) (converted)
recordedMetric: half-life (h)

>>> endpointvalue("CCn1c(=O)c(-c2cc(NC(=O)Nc3ccccc3)c(F)cc2Br)cc2cnc(NC)cc21")
27

* * *

# testProtocol: Pantoprazole (proton pump inhibitor) DDI study, plasma pharmacokinetics
# Type: in vivo, human
# cond: both sexes, human, plasma, po, ripretinib 50 mg single oral dose + pantoprazole 40 mg QD, fasting, healthy participants (N = 23); read-out: AUC0–∞, geometric mean (CV%)
recordedMetric: AUC(0-inf) (ng·h/mL)

>>> endpointvalue("CCn1c(=O)c(-c2cc(NC(=O)Nc3ccccc3)c(F)cc2Br)cc2cnc(NC)cc21")
4030

* * *

# testProtocol: Rifampin (strong CYP3A inducer) DDI study, plasma pharmacokinetics
# Assay type: in vivo, human
# cond: both sexes, human, plasma; ripretinib 100 mg single oral dose alone, fasting, healthy participants (rifampin study, N = 21); read-out: tmax, median (min, max)
recordedMetric: Tmax (h)

>>> endpointvalue("CCn1c(=O)c(-c2cc(NC(=O)Nc3ccccc3)c(F)cc2Br)cc2cnc(NC)cc21")
3

* * *

# testProtocol: Pantoprazole (proton pump inhibitor) DDI study, plasma pharmacokinetics
# Format: in vivo, human
# cond: both sexes, human, plasma, po, 50 mg, ripretinib 50 mg single oral dose alone, fasting, healthy participants (pantoprazole study, N = 23); read-out: Cmax, geometric mean (CV%)
recordedMetric: Cmax (ng/mL)

>>> endpointvalue("CCn1c(=O)c(-c2cc(NC(=O)Nc3ccccc3)c(F)cc2Br)cc2cnc(NC)cc21 [Ripretinib]")
289

* * *

# testProtocol: Itraconazole (strong CYP3A inhibitor) DDI study, plasma pharmacokinetics
# Assay type: in vivo, human
# cond: both sexes, human, plasma, po, 50 mg, ripretinib 50 mg single oral dose alone, fasting, healthy participants (itraconazole study, N = 20); read-out: t1/2, arithmetic mean (SD) (converted)
recordedMetric: half-life

>>> endpointvalue("CCn1c(=O)c(-c2cc(NC(=O)Nc3ccccc3)c(F)cc2Br)cc2cnc(NC)cc21")
"17 h"
